- System: NCI-H1417 complex spheroids, growth % test/control
- Method Summary: Anticancer human tumor NCI-H1417 cell line growth inhibition [Asc];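 further: spheroids exposed to compounds for 7 days; 100% = DMSO vehicle control wells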
- Condition Info: second compound 0.0949 µM; first compound 0.1 µM; stronger effect = lower value

Molecule	viability, T/C
C=CC(=O)N1CCN(c2nc(=O)n(-c3c(C)ccnc3C(C)C)c3nc(-c4c(O)cccc4F)c(F)cc23)C(C)C1 (centres undefined) + CCN1C(C(=O)NC23CCC(C(=O)O)(CC2)CC3)C(c2cccc(Cl)c2F)C2(C(=O)Nc3cc(Cl)ccc32)C12CCCCC2	94.4%
COc1c(OCCCN2CCOCC2)ccc2c3n(c(=NC(=O)c4cnc(N)nc4)nc12)CCN3 + CCN1C(C(=O)NC23CCC(C(=O)O)(CC2)CC3)C(c2cccc(Cl)c2F)C2(C(=O)Nc3cc(Cl)ccc32)C12CCCCC2	90.3%
CNC(C)C(=O)NC1CN(S(=O)(=O)c2cccc(S(=O)(=O)N3CCC4CCC(C(=O)NC(c5ccccc5)c5ccccc5)N4C(=O)C(NC(=O)C(C)NC)C3)c2)CCC2CCC(C(=O)NC(c3ccccc3)c3ccccc3)N2C1=O (centres undefined) + CCN1C(C(=O)NC23CCC(C(=O)O)(CC2)CC3)C(c2cccc(Cl)c2F)C2(C(=O)Nc3cc(Cl)ccc32)C12CCCCC2	91.5%
O=C(c1cc(Cc2n[nH]c(=O)c3ccccc23)ccc1F)N1CCN(C(=O)C2CC2)CC1 + CCN1C(C(=O)NC23CCC(C(=O)O)(CC2)CC3)C(c2cccc(Cl)c2F)C2(C(=O)Nc3cc(Cl)ccc32)C12CCCCC2	110%
